Target: 5-hydroxytryptamine receptor 1A (Homo sapiens, UniProt P08908)
Sequence (P08908 whole entry): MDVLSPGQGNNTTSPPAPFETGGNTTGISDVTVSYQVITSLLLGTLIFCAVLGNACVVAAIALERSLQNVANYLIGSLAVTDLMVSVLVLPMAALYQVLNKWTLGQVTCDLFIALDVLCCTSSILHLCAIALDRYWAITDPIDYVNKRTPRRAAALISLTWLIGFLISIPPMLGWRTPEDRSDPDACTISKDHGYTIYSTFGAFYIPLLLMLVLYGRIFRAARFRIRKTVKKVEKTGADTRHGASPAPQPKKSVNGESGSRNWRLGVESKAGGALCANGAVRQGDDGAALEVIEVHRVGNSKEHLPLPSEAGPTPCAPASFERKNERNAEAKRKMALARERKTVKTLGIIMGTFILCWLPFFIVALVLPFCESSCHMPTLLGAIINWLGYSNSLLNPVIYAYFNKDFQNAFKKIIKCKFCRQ
Assay: Antagonist activity at 5HT1A
Please respond with reported pKi for every item in the list.
Scale note: pKi = -log10(concentration in M).

Given `O=C(CCN1CCN(c2ccccc2O)CC1)c1ccc2ccccc2c1` , state its recorded pKi. 6.00

Given OC(CCN1CCN(c2ncccn2)CC1)c1ccccc1 (configuration not stated) , state its recorded pKi. 6.43

Given `COc1cc(F)ccc1N1CCN(CCC(=O)c2cc(C)sc2C)CC1` , state its recorded pKi. 7.89

Given OC(CCN1CCN(c2cnc3ccccc3c2)CC1)c1csc2ccccc12 (configuration not stated) , state its recorded pKi. 6.00

Given Cc1ccc2cccc(N3CCN(CCC(O)c4csc5ccccc45)CC3)c2n1 (configuration not stated) , state its recorded pKi. 7.99

Given CC1CN(CCC(O)c2csc3ccc(F)cc23)CCN1c1cccc2c1OCO2 (configuration not stated) , state its recorded pKi. 8.03

Given OC(CCN1CCN(c2cccc3c2OCCCO3)CC1)c1csc2ccccc12 (configuration not stated) , state its recorded pKi. 8.72

Given Cc1ccc2cccc(N3CCN(CCC(O)c4csc5ccc(F)cc45)CC3)c2n1 (configuration not stated) , state its recorded pKi. 8.60

Given COc1ccc(OC(CCN2CCN(c3ccccc3OC)CC2)c2ccccc2)cc1 (configuration not stated) , state its recorded pKi. 7.05

Given COc1ccccc1N1CCN(CCC(O)c2csc(C)c2)CC1 (configuration not stated) , state its recorded pKi. 6.43

Given OC(CCN1CCN(c2cccc3ccccc23)CC1)c1csc2ccccc12 (configuration not stated) , state its recorded pKi. 7.18

Given OC(CCN1CCN(c2ccc(F)cc2)CC1)c1ccccc1 (configuration not stated) , state its recorded pKi. 6.84
